src = ChEMBL document CHEMBL1201862

# Lookup of reported GI50 keyed by entry
- Tested on: OVCAR-3
- Test Description: NCI tumour cell line growth inhibition, 48 h
Calls of active or inactive are those of the source. Rule as the data show it: active = GI50 up to about 1.1 µM and inactive = higher.

Consider the reported GI50 for these compounds:
{"Compound": "CCOC(=O)C(=CNc1ccc(N(C2=NCC(C)S2)c2ccc(F)c(Cl)c2)cc1)C(=O)OCC (stereo not given)", "Data Value": "20.9 µM (inactive)"}
{"Compound": "CCOc1ccc(NC(=O)CC2C(=O)Nc3ccccc3[S+]2[O-])cc1 (stereo not given)", "Data Value": "> 59.7 µM (inactive)"}

Entry "O=[N+]([O-])c1nccn1CCCNCCCn1ccnc1[N+](=O)[O-]" ; GI50 = > 100 µM (inactive)

The compound FC1C2=C(SC1(F)F)C1CCC2C1 (stereo not given) showed GI50 equal to > 100 µM (inactive)

Consider "C=CCN(c1cc(OC)c(NC(C)=O)cc1[N+](=O)[O-])S(C)(=O)=O" . Its measured GI50 is > 100 µM (inactive)

Reported GI50 ( "c1ccc([P+](Cc2csnn2)(c2ccccc2)c2ccccc2)cc1" ) = > 100 µM (inactive)

The value of GI50 measured for the compound "COc1cccc(CCn2c(N)c(-c3cc(Cl)cc(Cl)c3)c3ccc([N+](=O)[O-])cc3c2=O)c1" turned out to be 3.13 µM (inactive)

# compound Nc1nc(Cl)cc(NCC2(CO)CC(CCCc3ccccc3)C2)n1 (stereo not given) ; its GI50 = > 100 µM (inactive)

The compound identified as CN1C(=O)c2c(ccc3c2OCO3)C2C(O)Cc3cc4c(cc3C21)OCO4 (stereo not given) registered its GI50 at 5.2 µM (inactive)

Data point: NC(=O)CC(Nc1ncc2c(n1)-c1ccccc1OC2)C(=O)O (stereo not given) ; GI50 = > 100 µM (inactive)

For reference, reported GI50 for "COc1ccc(/[N+]([O-])=C/c2ccc(OC(=S)S)c(OC)c2)cc1" stands at 43.9 µM (inactive)

// GI50 lookup, compound = "NC(=S)SCCC(=O)O" , result: > 100 µM (inactive)

In plain terms, C[C@]12CCNC(=O)C=C1CC[C@@H]1C2CC[C@@]2(C)C1CC[C@@H]2OC(=O)COc1ccc(N(CCCl)CCCl)cc1 (stereo not given in full) has a documented GI50 of 3.05 µM (inactive)

Documented GI50 of CCCCSCCC(N)P(=O)(O)O (stereo not given) : > 100 µM (inactive)

GET /value?item= CCCC(=O)OCC1OC(n2cc(F)c(=O)[nH]c2=O)C(F)C1OC(=O)CCC (stereo not given) &field=GI50 returns 41.5 µM (inactive)

Value of GI50 reported for the compound "CN(C)c1ccc2c(NCCCCCCNc3ccnc4cc(N(C)C)ccc34)ccnc2c1" is 13.7 µM (inactive)

So for C=C[C@@]1(C)CC2(C=C(CO)C(O)O2)Oc2c1c(=O)oc1cccc(C)c21 (stereo not given in full) , the logged GI50 turned out to be 3.16 µM (inactive)

Summary for this compound, "c1ccc2c(c1)CCN2CCN1CCc2ccccc21" : GI50 is > 10 µM (inactive)

According to the records, this compound "O=C(O)[C@@H]1CCC(=O)N1C(c1ccc2c(c1)OCO2)c1ccc2c(c1)OCO2" displays GI50 of > 100 µM (inactive)

// sample COc1nc2c(c(=O)[nH]1)N=C(c1ccc([N+](=O)[O-])cc1)CC(c1ccccc1)N2 (stereo not given) , its GI50 was > 100 µM (inactive)
